Measured on: major capsid protein (p24) of HIV-1 (HIV-1, UniProt P04591)
Assay summary: cell-based or functional assay
Ends that are not written are not given here.
So basically: reverse transcriptase (RT) activity in the supernatants, Day 10 RT (OD) at 2 OD or higher? That is Satisfied. Lower than 2 OD? That is Not satisfied.

| Binder | Group |
| --- | --- |
| Gly-Ala-Thr-NH2 [GAT-NH2] | Not satisfied |
| His-Lys-Ala-NH2 [HKA-NH2] | Satisfied |
